Assay: Biodistribution in ddY mice
Assay type: in vivo
Details: i.v. co-injection, 10 min
Marks after values point to notes of the source that are not given here.
Parameter Measured: Radioactivity in Blood

Before answering, review these 2 worked examples.
compound="COCCOc1ccc2c(c1)ncn2-c1ccc2c([77Br])ccc(N3CCC(N)CC3)c2n1 [[^77Br]2]" parameter_measured="Radioactivity in Blood" assay_value="0.99 (0.03) %injected dose/gram tissue"
compound="COCCOc1ccc2c(c1)ncn2-c1ccc2c([125I])ccc(N3CCC(N)CC3)c2n1 [[^125I]4, reference compound]" parameter_measured="Radioactivity in Blood" assay_value="1.15 (0.08)^* %injected dose/gram tissue"

Q: Suppose we examine the compound COCCOc1ccc2c(c1)ncn2-c1ccc2cccc(N3CCC(NC(=O)c4cccc([77Br])c4)CC3)c2n1 [[^77Br]3] ; what Radioactivity in Blood value has been reported?
Ans: 1.68 (0.07) %injected dose/gram tissue
